Values were extracted from patent US20240116985A1.

- measurement.target: full-length beta-Catenin (Uniprot ID P35222) (Homo sapiens (Human)) (UniProt P35222)
- Sequence (P35222 whole entry): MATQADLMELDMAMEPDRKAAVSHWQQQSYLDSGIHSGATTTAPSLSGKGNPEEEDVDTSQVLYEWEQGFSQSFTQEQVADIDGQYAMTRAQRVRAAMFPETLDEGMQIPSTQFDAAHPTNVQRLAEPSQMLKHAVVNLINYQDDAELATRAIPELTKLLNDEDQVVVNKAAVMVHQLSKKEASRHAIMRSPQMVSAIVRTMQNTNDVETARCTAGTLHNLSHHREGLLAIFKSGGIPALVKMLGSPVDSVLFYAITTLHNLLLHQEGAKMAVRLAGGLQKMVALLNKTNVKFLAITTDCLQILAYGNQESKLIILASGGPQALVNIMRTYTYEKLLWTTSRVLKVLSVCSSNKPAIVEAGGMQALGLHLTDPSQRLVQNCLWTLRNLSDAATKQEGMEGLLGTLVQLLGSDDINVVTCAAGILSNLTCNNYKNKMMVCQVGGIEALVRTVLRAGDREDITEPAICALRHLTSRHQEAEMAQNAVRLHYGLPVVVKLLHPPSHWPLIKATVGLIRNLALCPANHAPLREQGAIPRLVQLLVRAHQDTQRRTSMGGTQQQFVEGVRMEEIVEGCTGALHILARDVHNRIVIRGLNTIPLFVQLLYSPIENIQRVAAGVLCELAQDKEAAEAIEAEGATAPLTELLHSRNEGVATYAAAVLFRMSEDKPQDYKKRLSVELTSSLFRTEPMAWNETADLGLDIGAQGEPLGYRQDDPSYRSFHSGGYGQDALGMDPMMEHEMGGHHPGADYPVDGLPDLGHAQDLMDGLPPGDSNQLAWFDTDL
- experimental.details: fluorescence polarization competition; displacement of 5FAM-TCF4(10-53) from full-length beta-catenin
pEC50: −log10 of the molar value. Starred links: 1 amine or outer side, 2 acyl side, 3 side chain; linkers in the order of their positions; H or OH if unused. Positions of bridges follow the written chain, without caps; N, C: chain ends. Non-standard residues stand in square brackets, D forms with d. Primed or numbered codes have the meaning given here. *: point of attachment. B5(4) = 2,2-bis(4-pentenyl)glycine = 2-amino-2-(pent-4-en-1-yl)hept-6-enoic acid (stitching residue), C=CCCCC(CCCC=C)(N[*:1])C(=O)[*:2]; TfeGA(3) = (S)-2-amino-3-((carboxymethyl)(2,2,2-trifluoroethyl)amino)prop[anoic acid], O=C([C@H](CN(CC(=O)[*:3])CC(F)(F)F)N[*:1])[*:2]; Abu(4,4,4-F3) = N[C@@H](CC(F)(F)F)C(=O)O; Abu(4,4-F2) = N[C@@H](CC(F)F)C(=O)O; Bta = N[C@@H](Cc1csc2ccccc12)C(=O)O; αAllylPro = C=CC[C@@]1(C(=O)O)CCCN1; tBuAla = CC(C)(C)C[C@H](N)C(=O)O; S8 = C=CCCCCCC[C@](C)(N)C(=O)O; Dab = NCC[C@H](N)C(=O)O; Abu = CC[C@H](N)C(=O)O; Dap = NC[C@H](N)C(=O)O; Acryloyl = C=CC(=O)*
recorded.metric: pEC50

Ac-[αAllylPro]D[Abu(4,4,4-F3)][B5(4)]DEAAFQ[S8]F[Bta]Q-NH2 (staple 1-4, 4-11; also: earlier eluting isomer) [I-501] ... 7.03

P = Ac-[αAllylPro]DI[B5(4)]D[TfeGA(3)]AAFQ[S8]F[Bta]H-NH2 (staple 1-4, 4-11) [I-500]
Q = Ac-[αAllylPro]D[tBuAla][B5(4)]DEAAFQ[S8]F[Bta]Q-NH2 (staple 1-4, 4-11) [I-544]
R = Ac-[αAllylPro]D[Abu(4,4-F2)][B5(4)]DEAAFQ[S8]F[Bta]Q-NH2 (staple 1-4, 4-11) [I-503]
S = Ac-[αAllylPro]DI[B5(4)]DDAAFQ[S8][Dap](Acryloyl)[Bta]Q-NH2 (staple 1-4, 4-11; also: earlier eluting isomer) [I-483]
Hey, quick one: sort these by pEC50, low to high? Put the labels in the requested order and list them out.
S, P, R, Q

P = Ac-[αAllylPro]DI[B5(4)]DDAAFQ[S8]F[Bta][Dab]-NH2 (staple 1-4, 4-11) [I-482]
Q = Ac-[αAllylPro]D[Abu][B5(4)]DEAAFQ[S8]F[Bta]H-NH2 (staple 1-4, 4-11) [I-571]
Lab notebook, comparison: P versus Q , higher pEC50 goes to which? Indicate your choice by writing its label.
Q
(Q: 7.49, P: 6.93)
